Tgt: Bcl-xL, Q07817
Sequence (Q07817 1-209): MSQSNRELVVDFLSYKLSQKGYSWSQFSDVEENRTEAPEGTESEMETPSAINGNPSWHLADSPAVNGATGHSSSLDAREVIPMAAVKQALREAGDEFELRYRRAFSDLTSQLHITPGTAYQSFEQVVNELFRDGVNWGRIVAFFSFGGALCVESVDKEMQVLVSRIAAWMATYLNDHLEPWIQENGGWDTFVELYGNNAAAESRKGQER
Assay Procedure: peptide SPOT array, c-Myc-tagged receptor at 1 uM or 100 nM, anti-c-Myc-Cy3
Would you kindly list SPOT signal as a fraction of Bim BH3's signal on the same receptor and array for each of these binders?
Please state the value as a number alone, without comment.

**Q:** For KWTAEEVVLWLEQLGPWASLYRERFL [BFAR] , what is its reported SPOT signal as a fraction of Bim BH3's signal on the same receptor and array?
**A:** 0.07

**Q:** For GGRVKLVHSALIQLGDSLSHKGNEFW [WDR60] , what is its reported SPOT signal as a fraction of Bim BH3's signal on the same receptor and array?
**A:** 0.3

**Q:** For AKIIGNNVKKLQKFASTVKMWVFEET [GPD1L] , what is its reported SPOT signal as a fraction of Bim BH3's signal on the same receptor and array?
**A:** 0.07
